Molecular target: T1, Cre recombinase monomer with Y324T mutation
T1 chain: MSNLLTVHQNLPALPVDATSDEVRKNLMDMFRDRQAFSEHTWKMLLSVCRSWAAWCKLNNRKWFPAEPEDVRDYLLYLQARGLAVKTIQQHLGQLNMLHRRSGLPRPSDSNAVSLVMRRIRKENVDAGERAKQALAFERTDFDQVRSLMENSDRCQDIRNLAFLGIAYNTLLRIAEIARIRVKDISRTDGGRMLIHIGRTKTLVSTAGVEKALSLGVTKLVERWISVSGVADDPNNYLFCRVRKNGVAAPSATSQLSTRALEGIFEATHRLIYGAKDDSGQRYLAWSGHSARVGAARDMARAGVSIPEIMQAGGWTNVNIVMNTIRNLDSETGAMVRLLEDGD
Collected Median dimer activity (recombination on loxP) values appear next to each entry.
measured endpoint: Median dimer activity (recombination on loxP) (%)

| protein | obs value |
| --- | --- |
| Cre recombinase monomer with R173P mutation (protein) MSNLLTVHQNLPALPVDATSDEVRKNLMDMFRDRQAFSEHTWKMLLSVCRSWAAWCKLNNRKWFPAEPEDVRDYLLYLQARGLAVKTIQQHLGQLNMLHRRSGLPRPSDSNAVSLVMRRIRKENVDAGERAKQALAFERTDFDQVRSLMENSDRCQDIRNLAFLGIAYNTLLPIAEIARIRVKDISRTDGGRMLIHIGRTKTLVSTAGVEKALSLGVTKLVERWISVSGVADDPNNYLFCRVRKNGVAAPSATSQLSTRALEGIFEATHRLIYGAKDDSGQRYLAWSGHSARVGAARDMARAGVSIPEIMQAGGWTNVNIVMNYIRNLDSETGAMVRLLEDGD | 47 |
| Cre recombinase monomer with K201W mutation (protein) MSNLLTVHQNLPALPVDATSDEVRKNLMDMFRDRQAFSEHTWKMLLSVCRSWAAWCKLNNRKWFPAEPEDVRDYLLYLQARGLAVKTIQQHLGQLNMLHRRSGLPRPSDSNAVSLVMRRIRKENVDAGERAKQALAFERTDFDQVRSLMENSDRCQDIRNLAFLGIAYNTLLRIAEIARIRVKDISRTDGGRMLIHIGRTWTLVSTAGVEKALSLGVTKLVERWISVSGVADDPNNYLFCRVRKNGVAAPSATSQLSTRALEGIFEATHRLIYGAKDDSGQRYLAWSGHSARVGAARDMARAGVSIPEIMQAGGWTNVNIVMNYIRNLDSETGAMVRLLEDGD | 68 |
